biological target: recombinant human FGFR2 cytoplasmic domain (amino acids 403-822) (Homo sapiens (Human), UniProt P21802); assay: FGFR2 enzyme activity assay (LanthaScreen TR-FRET); settings: 15 μM ATP, 20 min incubation at 22° C., average of multiple determinations if made, read-out: FGFR2 Enz FRET IC50
Sequence (P21802 402-821): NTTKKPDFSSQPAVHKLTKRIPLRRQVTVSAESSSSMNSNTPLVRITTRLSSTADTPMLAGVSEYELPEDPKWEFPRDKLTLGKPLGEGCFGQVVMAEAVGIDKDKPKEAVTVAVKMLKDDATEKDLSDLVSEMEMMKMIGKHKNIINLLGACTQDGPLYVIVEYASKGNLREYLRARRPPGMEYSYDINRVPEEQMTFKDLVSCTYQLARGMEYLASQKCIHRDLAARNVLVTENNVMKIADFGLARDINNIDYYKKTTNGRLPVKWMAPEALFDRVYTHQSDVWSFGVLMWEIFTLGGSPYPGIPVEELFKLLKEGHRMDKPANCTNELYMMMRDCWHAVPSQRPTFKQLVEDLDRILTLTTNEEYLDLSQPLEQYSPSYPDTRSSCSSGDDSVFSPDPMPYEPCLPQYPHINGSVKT
Recorded measurements of pIC50, one per entry
The scale used: pIC50 is minus the common logarithm of the concentration in molar units.

givensmiles=C=CC(=O)N1CC2CC(C1)N2C(=O)N1CCC(n2cc(-c3cc(OC)c4c(C#N)cnn4c3)cn2)CC1 testvalue=8.40
givensmiles=C=CC(=O)N[C@H]1C[C@H](C(=O)N2CC[C@@H](n3cc(-c4cc(OC)c5c(C#N)cnn5c4)cn3)C2)C1 testvalue=8.15
givensmiles=C=CC(=O)N1CCC(C(=O)N2CCC(n3cc(-c4cc(OC)c5c(C#N)cnn5c4)cn3)CC2)CC1 testvalue=8.52
givensmiles=COc1cc(-c2c(C)nn(C3CCN(C(=O)C4(F)CN(C(=O)/C=C/CN(C)C)C4)CC3)c2C)cn2ncc(C#N)c12 testvalue=7.51
givensmiles=C=CC(=O)N1CC(C(=O)N2C3CCC2CN(c2ccc(-c4cc(OC)c5c(C#N)cnn5c4)cn2)C3)C1 testvalue=8.40

[Q] Value lookup for pIC50; key = COc1cc(-c2cnn(C3CCN(C(=O)C4(OC)CN(C(=O)/C=C/CN(C)C)C4)CC3)c2C)cn2ncc(Cl)c12
[A] 7.72

[Q] Any idea what pIC50 was measured for C=CC(=O)N1CC(OC)(C(=O)N2CCC(n3ncc(-c4cc(OC)c5c(Cl)cnn5c4)c3C)CC2)C1 ?
[A] 6.44

[Q] Consider the molecule C=CC(=O)N1CC2(CCN(C(=O)N3CCC(n4cc(-c5cc(OC)c6c(C#N)cnn6c5)cn4)CC3)C2)C1 and give its measured pIC50.
[A] 8.15

[Q] What does the record list as pIC50 for C=CC(=O)N1CC(C(=O)N2CCN(c3ncc(-c4cc(OC)c5c(C#N)cnn5c4)cc3C)CC2)C1 ?
[A] 7.38

[Q] # pIC50 lookup, item C=CC(=O)N[C@H]1CC[C@@H](C(=O)N2CCC(n3cc(-c4cc(OC)c5c(C#N)cnn5c4)cn3)CC2)CC1
[A] 8.52

[Q] Fill blank: measured pIC50 of the molecule C=CC(=O)N1CC(C(=O)N2CCC(n3cc(-c4cc(OC(C)C)c5c(C#N)cnn5c4)cn3)CC2)C1 is ____.
[A] 8.30

[Q] Record request: pIC50 value, item C=CC(=O)N1CCN(c2ccc(-c3cc(OC)c4c(C#N)cnn4c3)cc2)CC1
[A] 8.30

[Q] Any idea what its pIC50 is? The molecule is C=CC(=O)N1CC(C)(C(=O)N2CCC(n3cc(-c4cc(OC)c5c(Cl)cnn5c4)cn3)CC2)C1
[A] 7.89

[Q] Need pIC50 of C=CS(=O)(=O)N[C@H]1CC[C@H](C(=O)N2CCC(n3cc(-c4cc(OC)c5c(C#N)cnn5c4)cn3)CC2)C1 , thanks.
[A] 8.52

[Q] Given the entry C=CC(=O)N1CC(OC)(C(=O)N2CCC(n3ncc(-c4cc(OC)c5c(C#N)cnn5c4)c3C)CC2)C1 , report its measured pIC50.
[A] 7.16

[Q] Would you mind telling me what pIC50 value was observed for C=CC(=O)N1CCC[C@H](C(=O)N2CCC(n3cc(-c4cc(OC)c5c(C#N)cnn5c4)cn3)CC2)C1 ?
[A] 8.40

[Q] Requested read-out: pIC50. Entry: C=CC(=O)N1CC(C(=O)N2CC(n3cc(-c4cc(OC)c5c(C#N)cnn5c4)cn3)C2)C1
[A] 7.64

[Q] So what's the measured pIC50 for this one? C=CC(=O)Nc1ccc(C(=O)N2CCC[C@@H](n3cc(-c4cc(OC)c5c(C#N)cnn5c4)cn3)C2)cc1
[A] 7.92

[Q] Which pIC50 value belongs to C=CC(=O)N1CCC[C@H](C(=O)N2CC[C@H](n3cc(-c4cc(OC)c5c(C#N)cnn5c4)cn3)C2)C1 ?
[A] 8.15

[Q] Looking for the measured pIC50 of C=CC(=O)N[C@H]1CC[C@H](C(=O)N2CCC(n3cc(-c4cc(OC)c5c(C#N)cnn5c4)cn3)CC2)CC1 , can you help?
[A] 8.40

[Q] I'd like to know its pIC50. The molecule in question is C=CC(=O)NC1CCN(C(=O)c2ccc(-c3cc(OC)c4c(C#N)cnn4c3)cc2)CC1
[A] 7.74

[Q] Form field: reported pIC50 of COc1cc(-c2cnn(C3CCN(CC4(OC)CN(C(=O)/C=C/CN(C)C)C4)CC3)c2C)cn2ncc(C#N)c12
[A] 8.15

[Q] Which pIC50 value belongs to C=CC(=O)N1CC[C@@H](C(=O)N2CCC(n3ncc(-c4cc(OC)c5c(C#N)cnn5c4)c3C)CC2)C1 ?
[A] 8.05
